target: His-tagged CRBN-DDB1 complex (Homo sapiens); test: Time-Resolved Fluorescence Resonance Energy Transfer (TR-FRET / HTRF) CRBN binding assay, displacement of Cy5-labeled thalidomide; settings: His-CRBN-DDB1, Cy5-thalidomide 8 nM, 1 hour room temperature
Below: a set of entries, each annotated with reported IC50.

Consider the reported IC50 for these compounds:
compound	IC50
CN1C(=O)Cc2cccc(Oc3ccccc3)c2C1=O [Compound I-260]	> 100 µM
CC(C)(C)OC(=O)NCCCCCC#Cc1ccc(Oc2cccc3c2C(=O)NC(=O)C3)cc1 [Compound I-230]	> 100 µM
CC(C)Oc1cccc(N2C[C@@H]3C(=O)NC(=O)[C@@H]3C2)c1 [Compound I-137]	> 100 µM
O=C1Cc2cccc(C(=O)N3CCc4ccccc43)c2C(=O)N1 [Compound I-1]	> 100 µM

Turning to the following compound.
Input: Entry O=C1CC2(CCN(C(=O)COCc3ccccc3)CC2)CC(=O)N1 [Compound I-334] has what IC50?
Output: > 100 µM

###

Reported IC50 by item:
target: His-tagged CRBN-DDB1 complex (Homo sapiens, UniProt Q96SW2); assay: Time-Resolved Fluorescence Resonance Energy Transfer (TR-FRET / HTRF) CRBN binding assay, displacement of Cy5-labeled thalidomide; details: His-CRBN-DDB1, Cy5-thalidomide 8 nM, 1 hour room temperature
Sequence (Q96SW2 whole entry): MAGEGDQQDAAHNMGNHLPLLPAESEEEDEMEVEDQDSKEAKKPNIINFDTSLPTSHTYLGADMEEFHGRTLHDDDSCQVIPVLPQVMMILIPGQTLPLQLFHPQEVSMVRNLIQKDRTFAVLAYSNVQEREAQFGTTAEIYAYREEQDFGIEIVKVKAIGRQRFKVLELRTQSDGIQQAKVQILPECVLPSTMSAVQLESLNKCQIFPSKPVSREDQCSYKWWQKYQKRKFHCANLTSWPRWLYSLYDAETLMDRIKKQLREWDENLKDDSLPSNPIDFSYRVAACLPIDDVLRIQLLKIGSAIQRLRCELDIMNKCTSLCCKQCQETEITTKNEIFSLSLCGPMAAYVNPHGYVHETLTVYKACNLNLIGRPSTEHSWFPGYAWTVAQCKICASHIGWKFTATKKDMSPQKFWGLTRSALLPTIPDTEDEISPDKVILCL
Sequence (Q16531 whole entry partner): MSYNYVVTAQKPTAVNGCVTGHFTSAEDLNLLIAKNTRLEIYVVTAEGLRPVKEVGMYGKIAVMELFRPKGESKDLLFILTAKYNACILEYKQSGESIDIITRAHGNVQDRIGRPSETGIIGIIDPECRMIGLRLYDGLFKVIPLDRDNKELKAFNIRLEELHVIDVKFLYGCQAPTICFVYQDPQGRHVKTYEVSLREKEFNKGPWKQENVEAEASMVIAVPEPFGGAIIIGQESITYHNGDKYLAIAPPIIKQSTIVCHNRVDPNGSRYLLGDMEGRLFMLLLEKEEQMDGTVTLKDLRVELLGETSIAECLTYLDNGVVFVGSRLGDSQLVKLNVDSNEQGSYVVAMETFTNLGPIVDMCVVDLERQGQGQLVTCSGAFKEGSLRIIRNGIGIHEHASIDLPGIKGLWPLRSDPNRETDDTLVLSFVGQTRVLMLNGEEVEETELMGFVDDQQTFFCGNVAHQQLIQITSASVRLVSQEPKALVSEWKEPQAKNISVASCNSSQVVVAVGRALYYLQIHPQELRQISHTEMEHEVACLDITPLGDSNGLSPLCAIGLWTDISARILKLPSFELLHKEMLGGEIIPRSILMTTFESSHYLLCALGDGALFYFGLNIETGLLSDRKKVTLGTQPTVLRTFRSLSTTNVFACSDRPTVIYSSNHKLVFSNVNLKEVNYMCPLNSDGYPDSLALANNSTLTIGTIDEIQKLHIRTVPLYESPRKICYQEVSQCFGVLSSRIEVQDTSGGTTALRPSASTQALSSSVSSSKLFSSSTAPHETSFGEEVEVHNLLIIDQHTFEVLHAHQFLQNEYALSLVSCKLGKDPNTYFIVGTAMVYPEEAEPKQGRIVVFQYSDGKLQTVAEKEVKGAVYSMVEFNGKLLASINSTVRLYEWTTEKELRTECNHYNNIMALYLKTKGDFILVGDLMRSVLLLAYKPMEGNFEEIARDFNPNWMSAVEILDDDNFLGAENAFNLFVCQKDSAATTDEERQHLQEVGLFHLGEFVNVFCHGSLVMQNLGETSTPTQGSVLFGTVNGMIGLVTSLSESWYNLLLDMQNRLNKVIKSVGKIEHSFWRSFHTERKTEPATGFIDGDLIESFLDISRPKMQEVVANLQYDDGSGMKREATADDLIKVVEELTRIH

test_smiles	IC50
CC(C)(C)OC(=O)NCCCCCCCc1cccc(Oc2cccc3c2C(=O)NC(=O)C3)c1	< 10 µM

Input: Which value of IC50 has been reported for `O=C1NC(=O)c2c(Br)cccc21` in the records?
Output: > 100 µM

Input: Thanks! And `CC(C)(C)OC(=O)NCCCCCCCc1ccccc1Oc1cccc2c1C(=O)NC(=O)C2=O` ?
Output: 10 to 30 µM

Input: Can you handle `Cn1c(=O)[nH]c2cccc(Br)c2c1=O` next?
Output: > 100 µM

Input: Also, `O=C(NC1CC1)c1ccc(N2C[C@@H]3C(=O)NC(=O)[C@@H]3C2)cc1` please.
Output: > 100 µM

###

target: His-tagged CRBN-DDB1 complex (Homo sapiens); assay: Time-Resolved Fluorescence Resonance Energy Transfer (TR-FRET / HTRF) CRBN binding assay, displacement of Cy5-labeled thalidomide; conditions: His-CRBN-DDB1, Cy5-thalidomide 8 nM, 1 hour room temperature
pIC50: −log10 of the molar value.
Here, each record is paired with measured pIC50 data.

test_smiles	system_tested	pIC50
CCCOc1ccc(N2CCC3(CC2)CC(=O)NC(=O)C3)cc1	His-tagged CRBN-DDB1 complex (Homo sapiens)	4.00 to 4.52
CC(C)(C)OC(=O)NCCCCCCCCCc1ccccc1Oc1cccc2c1C(=O)NC(=O)C2	His-tagged CRBN-DDB1 complex (Homo sapiens)	< 4.00
Cc1ccc(CN2C[C@@H]3C(=O)NC(=O)[C@@H]3C2)cc1	His-tagged CRBN-DDB1 complex (Homo sapiens)	< 4.00
O=C1CC2(CCN(Cc3c[nH]cn3)CC2)CC(=O)N1	His-tagged CRBN-DDB1 complex (Homo sapiens)	< 4.00
CN(C)C(=O)c1cccc(N2C[C@@H]3C(=O)NC(=O)[C@@H]3C2)c1	His-tagged CRBN-DDB1 complex (Homo sapiens)	< 4.00

Proceed to the following item.
Input: Fill in the blank: the reported pIC50 of `O=Cc1ccc(N2C[C@@H]3C(=O)NC(=O)[C@@H]3C2)cc1` is ____.
Output: < 4.00

Attribution: patent US20220281831A1
